biological target: Serine/threonine-protein kinase D2 (Homo sapiens); conditions: at 1 µM
residual activity values, listed per item
# number only, unit % dropped from output

Illustrative cases are given below, each with its answer.
O=c1cc(N2CCNCC2)oc2c(-c3ccccc3)cccc12 :: 102
O=C1C(Cl)=C(N2C(=O)CCC2=O)C(=O)c2ccccc21 :: 99

(Q) Short answer please: residual activity, Serine/threonine-protein kinase D2 (Homo sapiens), entry `Nc1ncnc2[nH]nc(Nc3ccc(F)cc3)c12`
(A) 106

(Q) Any idea what residual activity came out for `COc1ccc2c(c1)c(C1=C(c3c[nH]c4ccccc34)C(=O)NC1=O)cn2CCCN(C)C` on Serine/threonine-protein kinase D2 (Homo sapiens)?
(A) 98

(Q) For Serine/threonine-protein kinase D2 (Homo sapiens), provide residual activity of `CC(C)c1nn(-c2c(Cl)cccc2Cl)c2nc(Cc3ccc(OCCO)cc3)[nH]c(=O)c12` please.
(A) 95

(Q) Give recorded residual activity with Serine/threonine-protein kinase D2 (Homo sapiens) for the following molecule: `NC(=O)c1ccc(-c2nc(-c3ccc4c(c3)OCCO4)c(-c3ccccn3)[nH]2)cc1`
(A) 98

(Q) # get_value(readout= residual activity, system= Serine/threonine-protein kinase D2 (Homo sapiens)) for `NC(=O)Nc1sc(-c2ccc(F)cc2)cc1C(N)=O`
(A) 100

(Q) Form entry - test system: Serine/threonine-protein kinase D2 (Homo sapiens); read-out: residual activity; molecule: `COc1cc2c(cc1OC)-c1n[nH]c(Nc3cccc(F)c3)c1C2`
(A) 107

----------
# maps each entry to its residual activity
target: Receptor-interacting serine/threonine-protein kinase 2 (Homo sapiens); conditions: at 10 µM;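 also: residual kinase activity of the enzyme remaining, given as percent of control, assayed in 8 mM MOPS pH 7.0 buffer with 0.2 mM EDTA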
Description: Millipore: Percentage of residual kinase activity of RIPK2 at 10uM relative to control. Control inhibitor: Phosphoric acid* at 0.3uM. Buffer: 8 mM MOPS pH 7.0, 0.2 mM EDTA
Numeric only. Scale: %

O=c1cc(N2CCOCC2)oc2c1ccc1ccccc12 :: 83
COc1cc2c(cc1OC)-c1n[nH]c(Nc3cccc(F)c3)c1C2 :: 17
CC(C)c1nn(-c2c(Cl)cccc2Cl)c2nc(Cc3ccc(OCCO)cc3)[nH]c(=O)c12 :: 83

(Q) Recorded residual activity of `O=C1Nc2ccccc2/C1=C\c1c(Cl)[nH]c2ccccc12` , please.
(A) 60

(Q) Given `O=c1c(-c2ccc(F)cc2)c(-c2ccncc2)[nH]n1-c1ccc(Cl)cc1` , state its recorded residual activity.
(A) 19

(Q) Given the entry `COc1cc2ncnc(Nc3cccc(Cl)c3)c2cc1OC` , report its measured residual activity.
(A) 16

(Q) Could you tell me which residual activity is on file for `O=C1Cc2c([nH]c3ccc(Br)cc23)-c2ccccc2N1` ?
(A) 22

(Q) # query: residual activity of entry `COc1ccc(Cl)cc1NC(=O)Nc1cc(C)nc2ccccc12`
(A) 93

----------
target: Serine/threonine-protein kinase 24 (Homo sapiens) (UniProt Q9Y6E0); settings: at 10 µM
Sequence (Q9Y6E0 whole entry, looked up): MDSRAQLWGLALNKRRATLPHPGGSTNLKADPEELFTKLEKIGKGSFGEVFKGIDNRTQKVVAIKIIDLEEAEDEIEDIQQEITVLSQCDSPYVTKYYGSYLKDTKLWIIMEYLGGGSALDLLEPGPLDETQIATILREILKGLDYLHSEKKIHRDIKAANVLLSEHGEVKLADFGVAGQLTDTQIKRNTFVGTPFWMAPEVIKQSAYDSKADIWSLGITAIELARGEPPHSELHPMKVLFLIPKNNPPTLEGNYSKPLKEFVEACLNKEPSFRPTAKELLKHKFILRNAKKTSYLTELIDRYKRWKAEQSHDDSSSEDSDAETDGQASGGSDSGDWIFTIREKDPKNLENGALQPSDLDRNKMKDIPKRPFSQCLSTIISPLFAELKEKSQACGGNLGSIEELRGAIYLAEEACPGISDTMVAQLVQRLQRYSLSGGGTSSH
# maps each entry to its residual activity
# output: bare number, implied unit %

A selection of reference data follows.
CC(C)[C@H](CO)Nc1nc(Nc2cc(N)cc(Cl)c2)c2ncn(C(C)C)c2n1 :: 26
O=C1NC(=O)C(c2c[nH]c3ccccc23)=C1c1c[nH]c2ccccc12 :: 2
O=c1cc(N2CCOCC2)oc2c1ccc1ccccc12 :: 82
CCN1/C(=C/C(C)=O)Sc2ccc(OC)cc21 :: 74

Alright, here's another compound for you.
(Q) Param item = `O=C1NC(=O)C(c2cn(CCCn3ccnc3)c3ccccc23)=C1Nc1ccccc1` ; retrieve measured residual activity.
(A) 8
